Measured values drawn from the supplement of paper PMC9170038 for this set.

System: MS2 coat protein
TEST DESCRIPTION: apparent KD of MS2 coat protein; designed switch direction (-1 OFF switch, 1 ON switch): -1; higher = weaker reporter binding
RUN PARAMETERS: Eterna round: R95; input ligand: FMN 200 uM
Hi there, I'd appreciate the recorded apparent KD of MS2 coat protein for every entry that follows.
Answers are plain numbers, in nM.

// worked examples, apparent KD of MS2 coat protein included
BIOPOLYMER SEQUENCE	UOM	apparent KD of MS2 coat protein
GAUUAUGCGAGCUUUAGGGACAUGAGGAUCACCCAUGUUCGUCUUAUUGGUCUAAAUGCACUAACAUACCUAAAUCU [JMF 23] (puzzle: Sensor v3, turn-off variant 1)	nM	17.7
AUGAGACAUGAGGAUCACCCAUGUGAGGAUAUGUAUGGAUGGAGGAAAGAAUGAGAGAACAGAAGGCACGGAGG [JR_Exclu1_Sub065] (puzzle: Exclusion 1)	nM	70.7
AGUACUAUCACGAAAGUGAUAGUACAAUAAGCUUGUGGAACAUGAGGAUCACCCAUGUCCUCAUAAGCUCGUCUUAU [Mat - Sensor v3 - Turn-off var 2 - D27] (puzzle: Sensor v3, turn-off variant 2)	nM	15.7

query: Consider the sequence shown here: GAAAAGGUAGGAUAUACGAAAAAAAAGGGAAGAAAAAAAACACAUGAGGAUCACCCAUGUAGAAGGACCAAAAG [salish99_ex2_r3_064] (puzzle: Exclusion 2) What is its recorded apparent KD of MS2 coat protein?
result: 34.4
